Study target: PAR2 (Homo sapiens, UniProt P55085)
Sequence (P55085 26-397): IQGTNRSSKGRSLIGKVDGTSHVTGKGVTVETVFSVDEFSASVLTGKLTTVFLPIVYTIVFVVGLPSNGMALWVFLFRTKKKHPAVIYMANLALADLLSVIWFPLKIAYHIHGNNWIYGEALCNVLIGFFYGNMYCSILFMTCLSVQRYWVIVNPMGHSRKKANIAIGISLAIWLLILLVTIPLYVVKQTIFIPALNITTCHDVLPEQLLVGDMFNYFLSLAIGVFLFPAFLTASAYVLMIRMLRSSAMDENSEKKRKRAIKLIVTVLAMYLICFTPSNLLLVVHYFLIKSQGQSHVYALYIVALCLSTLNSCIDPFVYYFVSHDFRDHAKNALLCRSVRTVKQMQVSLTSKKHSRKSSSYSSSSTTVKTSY
Protocol description: PAR2 agonist inhibition (antagonism) by intracellular Ca2+ release in HT29 cells
Type: cell-based
Set-up: Agonists of Ca^2+ release in HT29 cells; endogenous in cells; host or cells: HT29 (human cell line, cultured per ATCC information)

Compound	IC50 / nM
CCC(C)Oc1ccccc1CNC(=O)[C@@H](NC(=O)[C@H](CC1CCCCC1)NC(=O)c1ccno1)[C@@H](C)CC (stereo partly shown)	1600

###

Catalogue of EC50 values
Study target: PAR2 (Homo sapiens, UniProt P55085)
Protocol description: PAR2 activation (agonist) by intracellular calcium mobilisation in HT29 cells
Type: cell-based
Set-up: Agonists of Ca^2+ release in HT29 cells; endogenous in cells; host or cells: HT29 (human cell line, cultured per ATCC information)
Experimental conditions: EC50, agonist or partial agonist of Ca2+ release in HT29 cells, Fluo-3 fluorescence
Measured parameter: EC50 (nM)

Compound	Measured parameter	Value reported
CC[C@H](C)[C@H](NC(=O)[C@H](CC1CCCCC1)NC(=O)c1ccno1)C(=O)N1CCC2(CC1)CC(=O)c1ccccc1O2 [Compound 15]	EC50	760
CC[C@H](C)[C@H](NC(=O)[C@H](CC1CCCCC1)NC(=O)c1ccno1)C(=O)N1CCC2(CC1)OC(=O)c1ccccc12 [Compound 14]	EC50	1300

###

Study target: UniProt:P55085
Protocol description: PAR2 agonist inhibition (antagonism) by intracellular Ca2+ release in HT29 cells
Assay type: cell-based
Parameters: Agonists of Ca^2+ release in HT29 cells; endogenous in cells; host or cells: HT29 (human cell line, cultured per ATCC information)
Experimental conditions: HT29 cells; 30 min pre-incubation, then PAR2 agonist (1 μM 2f-LIGRLO-NH2); read-out: IC50, inhibition of Ca2+ release in HT29 cells
Method: The ability of the compounds of the present invention to activate PAR2 may be assessed via calcium mobilisation assays. […] The cells were then treated with 1 μM of the PAR2 agonist 2f-LIGRLO-NH2 (FIG. 2A. n=5) or 100 nM Trypsin (FIG. 2B, n=1). […] Net changes in fluorescence were calculated as a percentage relative to the maximum response given 1 μM 2f-LIGRLO-NH2 or 100 nM Trypsin. Changes in fluorescence (% response) were plotted against logarithmic compound concentrations. […]
pIC50: −log10 of the molar value.
Measured parameter: pIC50

Molecule	Value reported
CC[C@H](C)[C@H](NC(=O)[C@H](CC1CCCCC1)NC(=O)c1ccno1)C(=O)N1CCC(Cc2ccccc2)CC1	5.10
CC[C@H](C)[C@H](NC(=O)[C@H](CC1CCOCC1)NC(=O)c1ccno1)C(=O)N1CCC2(C=Cc3ccccc32)CC1	4.22
CO[C@H](C)[C@H](NC(=O)[C@H](CC1CCCCC1)NC(=O)c1ccno1)C(=O)N1CCC2(C=Cc3ccccc32)CC1	6.00
CC[C@H](C)[C@H](NC(=O)[C@H](CC1CCCCC1)NC(=O)c1ccno1)C(=O)N1CCC(c2ccccc2C(F)(F)F)CC1	5.00
CC[C@H](C)[C@H](NC(=O)[C@H](CC1CCCCC1)NC(=O)c1ccno1)C(=O)NCc1ccccc1OC	6.30
CC[C@H](C)[C@H](NC(=O)[C@H](CC1CCCCC1)NC(=O)c1ccno1)C(=O)N(C)Cc1ccccc1OC	5.19
CC[C@H](C)[C@H](NC(=O)[C@H](CC1CCCCC1)NC(=O)c1ccno1)C(=O)N1CCCC(Nc2cccc(C(F)(F)F)c2)C1 (some centres unmarked)	5.22
CCCCOc1ccccc1CNC(=O)[C@@H](NC(=O)[C@H](CC1CCCCC1)NC(=O)c1ccno1)[C@@H](C)CC	4.40
CCCOc1ccccc1CNC(=O)[C@@H](NC(=O)[C@H](CC1CCCCC1)NC(=O)c1ccno1)[C@@H](C)CC	5.70
CC[C@H](C)[C@H](NC(=O)[C@H](CC1CCCCC1)NC(=O)c1ccno1)C(=O)N1CCC(c2ccc(OC)cc2)CC1	5.00
CC[C@H](C)[C@H](NC(=O)[C@H](CC1CCCCC1)NC(=O)c1ccno1)C(=O)N1CCC(c2ccccc2-c2ccccc2)CC1	4.60
CC[C@H](C)[C@H](NC(=O)[C@H](CC1CCCCC1)NC(=O)c1ccno1)C(=O)NCc1cccc(OC)c1	6.30
CC[C@H](C)[C@H](NC(=O)[C@H](CC1CCCCC1)NC(=O)c1ccno1)C(=O)NCc1ccccc1C	6.30
COc1ccccc1CNC(=O)[C@@H](NC(=O)[C@H](CC1CCCCC1)NC(=O)c1ccno1)[C@@H](C)OC	5.89
CCOc1ccccc1CNC(=O)[C@@H](NC(=O)[C@H](CC1CCCCC1)NC(=O)c1ccno1)[C@@H](C)CC	6.15
CC[C@H](C)[C@H](NC(=O)[C@H](CC1CCCCC1)NC(=O)c1ccno1)C(=O)NCc1cccc(C(=O)N2CCC(NCCN)(C(=O)NCc3ccccc3)CC2)c1	6.15
CC[C@H](C)[C@H](NC(=O)[C@H](CC1CCCCC1)NC(=O)c1ccno1)C(=O)N1CCCC[C@H]1C(=O)NC(C)(C)C	5.07
CC[C@H](C)[C@H](NC(=O)[C@H](CC1CCCCC1)NC(=O)c1ccno1)C(=O)NCc1cccc2c1OCO2	6.40
CC[C@H](C)[C@H](NC(=O)[C@H](CC1CCCCC1)NC(=O)c1ccno1)C(=O)NCc1ccc(Cl)c(Cl)c1	5.85
CC[C@H](C)[C@H](NC(=O)[C@H](CC1CCCCC1)NC(=O)c1ccno1)C(=O)NCc1ccccc1OC(C)C	5.89

src = patent US9701711B2
